target: RPtag (large); experiment: Buffer additive screen, Kd by fluorescence anisotropy; type: binding, Thermoanaerobacter tengcongensis; conditions: CaCl2 (3M)
pKd: −log10 of the molar value. No end group written: not given here.
This listing pairs sequences with measured pKd.
value kind: pKd

| seq string | value kind | readout relation | observed value |
| --- | --- | --- | --- |
| KIANFIPAELKLITKANVQ [Nd2, p5a, e18a, KIANFIPAELKLITKANVQ] | pKd | = | 6.82 |
| PAELKLITK [Nd8, Cd4, PAELKLITK] | pKd | < | 5.00 |

---

target: RPtag (large); experiment: Buffer additive screen, Kd by fluorescence anisotropy; assay type: binding, Thermoanaerobacter tengcongensis; details: 100 mM Tris pH 8.0, 0.005% Tween 20; No Additive
No end group written: not given here.

| seq string | Kd / nM |
| --- | --- |
| KIANFIPAELKLITKANVQ [Nd2, p5a, e18a, KIANFIPAELKLITKANVQ] | 0.037 |
| PAELKLITK [Nd8, Cd4, PAELKLITK] | 14 |
